Test system: HSC1 (primary human Schwann cells)
Assay: drug sensitivity score (DSS, CellTox-Green cytotoxicity, 72 h) (DSS (dimensionless)); higher = more cytotoxic; extreme values may be limits of the assay

{"compound": "Cn1cc(C2=C(c3cn(C4CCN(Cc5ccccn5)CC4)c4ccccc34)C(=O)NC2=O)c2ccccc21 [Enzastaurin] (max concentration tested 10000 nM)", "drug sensitivity score": 0}
{"compound": "COc1cc2c(cc1-c1c(C)noc1C)ncc1[nH]c(=O)n([C@H](C)c3ccccn3)c12 [I-BET151] (max concentration tested 10000 nM)", "drug sensitivity score": 0.0349}
{"compound": "CC1(C)NC(=O)N(c2ccc([N+](=O)[O-])c(C(F)(F)F)c2)C1=O [Nilutamide] (max concentration tested 10000 nM)", "drug sensitivity score": 0}
{"compound": "CN1CCN(c2ccc3nc(-c4c(N)c5c(F)cccc5[nH]c4=O)[nH]c3c2)CC1 [Dovitinib] (max concentration tested 10000 nM)", "drug sensitivity score": 0}
{"compound": "CC(C)C(=O)Nc1ccc([N+](=O)[O-])c(C(F)(F)F)c1 [Flutamide] (max concentration tested 10000 nM)", "drug sensitivity score": 0}
{"compound": "C[C@H]1C=C2C(=O)O[C@H]3CC[C@@H](C1)[C@@]23O [Galiellalactone] (max concentration tested 50000 nM)", "drug sensitivity score": 0.367}

###

System: HS-PSS
Assay: relative IC50 (inflection point of fitted dose-response curve, CellTox-Green cytotoxicity, 72 h; top asymptote may be below 50%); higher = less potent
Parameter: relative IC50. Scope: all listed entries.

{"compound": "CC(=O)c1c(C)c2cnc(Nc3ccc(N4CCNCC4)cn3)nc2n(C2CCCC2)c1=O", "assay target": "HS-PSS", "result modifier": ">", "relative IC50, nM": 10000}
{"compound": "CC[C@@H]1C(=O)OC[C@@H]1Cc1cncn1C", "assay target": "HS-PSS", "result modifier": ">", "relative IC50, nM": 40000}
{"compound": "O=C(NC[C@H](O)CN1CCc2ccccc2C1)c1cc(NC2COC2)ncn1", "assay target": "HS-PSS", "result modifier": ">", "relative IC50, nM": 10000}
{"compound": "COc1cc(Nc2c(C#N)cnc3cc(OCCCN4CCN(C)CC4)c(OC)cc23)c(Cl)cc1Cl", "assay target": "HS-PSS", "result modifier": "=", "relative IC50, nM": 3310}
{"compound": "Cn1nccc1Nc1nccc(-c2ccn([C@H](CO)c3ccc(Cl)c(F)c3)c(=O)c2)n1", "assay target": "HS-PSS", "result modifier": ">", "relative IC50, nM": 10000}
{"compound": "C=CCc1cccc(/C=N/NC(=O)CN2CCN(Cc3ccccc3)CC2)c1O", "assay target": "HS-PSS", "result modifier": "=", "relative IC50, nM": 2020}
{"compound": "COc1cc2ncnc(Oc3cccc(NC(=O)Nc4cc(C(C)(C)C(F)(F)F)on4)c3)c2cc1OC", "assay target": "HS-PSS", "result modifier": ">", "relative IC50, nM": 10000}
{"compound": "O=C(O)C(=O)O.[NH-][C@@H]1CCCC[C@H]1[NH-].[Pt+2]", "assay target": "HS-PSS", "result modifier": "=", "relative IC50, nM": 23200}
{"compound": "Cc1[nH]c(/C=C2\\C(=O)Nc3ccccc32)c(C)c1CCC(=O)O [Orantinib]", "assay target": "HS-PSS", "result modifier": "=", "relative IC50, nM": 205}
{"compound": "CN1CCN(c2cc(C(=O)Nc3ccc4c(c3)-c3c(c(C(N)=O)nn3-c3ccc(F)cc3)CC4)c(Cl)cn2)CC1", "assay target": "HS-PSS", "result modifier": "=", "relative IC50, nM": 3260}
{"compound": "COc1ccc(C2=N[C@@H](c3ccc(Cl)cc3)[C@@H](c3ccc(Cl)cc3)N2C(=O)N2CCNC(=O)C2)c(OC(C)C)c1", "assay target": "HS-PSS", "result modifier": ">", "relative IC50, nM": 10000}
{"compound": "Nc1nc(Cl)nc2c1ncn2[C@@H]1O[C@H](CO)[C@@H](O)[C@@H]1F", "assay target": "HS-PSS", "result modifier": "=", "relative IC50, nM": 311}
{"compound": "Nc1ccn([C@@H]2O[C@H](CO)[C@@H](O)[C@@H]2O)c(=O)n1", "assay target": "HS-PSS", "result modifier": "=", "relative IC50, nM": 336}
{"compound": "COCC(=O)NC/C=C/c1ccc2ncnc(Nc3ccc(Oc4ccc(C)nc4)c(C)c3)c2c1", "assay target": "HS-PSS", "result modifier": ">", "relative IC50, nM": 10000}
{"compound": "Cc1cc2c(F)c(Oc3ncnn4cc(OC[C@@H](C)O)c(C)c34)ccc2[nH]1", "assay target": "HS-PSS", "result modifier": ">", "relative IC50, nM": 1000}
{"compound": "O=[N+]([O-])c1ccc2c(c1)S(=O)(=O)C=C2", "assay target": "HS-PSS", "result modifier": "=", "relative IC50, nM": 2870}
{"compound": "Nc1ncnc2c1c(-c1cccc(OCc3ccccc3)c1)cn2[C@H]1C[C@@H](CN2CCC2)C1", "assay target": "HS-PSS", "result modifier": "=", "relative IC50, nM": 2380}
{"compound": "O=C(O)CC[C@H]1CC[C@@](c2cc(F)ccc2F)(S(=O)(=O)c2ccc(Cl)cc2)CC1", "assay target": "HS-PSS", "result modifier": ">", "relative IC50, nM": 1000}

###

Tested on: YST-1
Test: drug sensitivity score (DSS, CellTiter-Glo viability, 72 h) (DSS (dimensionless)); higher = more sensitive; extreme values may be limits of the assay
Assign class by drug sensitivity score: not lower than 3 means YES; lower than 3 means NO.

{"molecule": "O=S(=O)(c1cccc2cnccc12)N1CCCNCC1 [Fasudil] (max concentration tested 50000 nM)", "assigned category": "NO"}
{"molecule": "CC(C)N(CCCNC(=O)Nc1ccc(C(C)(C)C)cc1)C[C@H]1O[C@@H](n2cc(Br)c3c(N)ncnc32)[C@H](O)[C@@H]1O [SGC0946] (max concentration tested 10000 nM)", "assigned category": "NO"}
{"molecule": "O=C(CCCCCCC(=O)Nc1ccccc1)NO [Vorinostat] (max concentration tested 10000 nM)", "assigned category": "YES"}
{"molecule": "Cc1ccccc1C(C(=O)NC1CCCCC1)N(C(=O)Cn1ccnc1C)c1cccc(F)c1 (stereo unspecified) [AGI-5198] (max concentration tested 10000 nM)", "assigned category": "NO"}
{"molecule": "Cn1cc(-c2ccc3nnc(Sc4ccc5ncccc5c4)n3n2)cn1 [SGX-523] (max concentration tested 5000 nM)", "assigned category": "NO"}
{"molecule": "CC(C)C[C@@H](C(=O)N[C@H](C(=O)OC1CCCC1)c1ccccc1)[C@H](O)C(=O)NO [Tosedostat] (max concentration tested 10000 nM)", "assigned category": "YES"}

###

Test system: HSC1
Experiment: relative IC50 (inflection point of fitted dose-response curve, CellTox-Green cytotoxicity, 72 h; top asymptote may be below 50%); higher = less potent
Parameter: relative IC50. Scope: all listed entries.
endpoint name: relative IC50

{"smiles repr": "CC(C)c1c(C(=O)Nc2ccccc2)c(-c2ccccc2)c(-c2ccc(F)cc2)n1CC[C@@H](O)C[C@@H](O)CC(=O)O", "result": "368 nM"}
{"smiles repr": "CC(C)C[C@H](NC(=O)[C@H](CCc1ccccc1)NC(=O)CN1CCOCC1)C(=O)N[C@@H](Cc1ccccc1)C(=O)N[C@@H](CC(C)C)C(=O)[C@@]1(C)CO1", "result": "24.6 nM"}
{"smiles repr": "CCN(CC)CCNC(=O)c1c(C)[nH]c(/C=C2\\C(=O)Nc3ccc(F)cc32)c1C", "result": "> 1000 nM"}
{"smiles repr": "Oc1ccc2c(c1)CC[C@H](c1ccccc1)[C@@H]2c1ccc(OCCN2CCCC2)cc1", "result": "> 1000 nM"}
{"smiles repr": "CC1(C)CNc2cc(NC(=O)c3cccnc3NCc3ccncc3)ccc21", "result": "> 10000 nM"}
{"smiles repr": "C[C@@H](Oc1cc(-c2cnn(C3CCNCC3)c2)cnc1N)c1c(Cl)ccc(F)c1Cl", "result": "> 1000 nM"}
{"smiles repr": "CC(C)(C)c1cc(NC(=O)Nc2ccc(-c3cn4c(n3)sc3cc(OCCN5CCOCC5)ccc34)cc2)no1", "result": "> 1000 nM"}
{"smiles repr": "CC[C@]1(O)C[C@H]2CN(CCc3c([nH]c4ccccc34)[C@@](C(=O)OC)(c3cc4c(cc3OC)N(C=O)[C@H]3[C@@](O)(C(=O)OC)[C@H](OC(C)=O)[C@]5(CC)C=CCN6CC[C@]43[C@@H]65)C2)C1", "result": "62.2 nM"}
{"smiles repr": "OC[C@H]1O[C@@H](n2cnc3c2N=CNC[C@H]3O)C[C@@H]1O", "result": "> 10000 nM"}
{"smiles repr": "CO[C@H]1C[C@@H]2CC[C@@H](C)[C@@](O)(O2)C(=O)C(=O)N2CCCC[C@H]2C(=O)O[C@H]([C@H](C)C[C@@H]2CC[C@@H](OCCO)[C@H](OC)C2)CC(=O)[C@H](C)/C=C(\\C)[C@@H](O)[C@@H](OC)C(=O)[C@H](C)C[C@H](C)/C=C/C=C/C=C/1C", "result": "> 100 nM"}
{"smiles repr": "C=C1C[C@@H]2[C@H](CC[C@]3(C)C(=O)CC[C@@H]23)[C@@]2(C)C=CC(=O)C=C12", "result": "> 10000 nM"}
{"smiles repr": "Cc1ccc(NC(=O)c2ccc(CN3CCN(C)CC3)cc2)cc1Nc1nccc(-c2cccnc2)n1", "result": "> 10000 nM"}
{"smiles repr": "C[C@]1(O)C[C@@H](c2nc(-c3ccc4ccc(-c5ccccc5)nc4c3)c3c(N)nccn32)C1", "result": "> 10000 nM"}
